Data provenance: ChEMBL document CHEMBL2440047

Measured GI50 of individual entries
# Tested on: HT-29
# ASSAY_INFO: Growth inhibition of non-estrogen-sensitive human HT-29 cells after 72 hrs by MTT assay
# Format: functional
# TEST_CONTEXT: HT-29, 72 h

N#Cc1ccc(C(c2ccc(C#N)cc2)n2cncn2)cc1 [LETROZOLE] :: > 100 µM
COc1ccc(-c2cc(Cn3cncn3)c3ccc4[nH]ccc4c3n2)cc1 :: > 100 µM

Attention now shifts to the item below.
Prompt: Respond only with GI50 recorded for COc1ccc(-c2cc(Cn3ccnc3)c3ccc4[nH]ccc4c3n2)cc1
Completion: > 100 µM
